Values compiled from PubChem BioAssay.

# test_protocol: growth suppression of PTEN-deleted HCT116, pilot screen, cell-based, HCT116 clonal line, CellTiter-Glo (AID 824);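 also: 0% = 20 µM Hyamine control and 100% = vehicle cell control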
# condition_summary: 60 h, at 10 µM, hits give low values
Results filed as inconclusive are left out.
Cut-off 90% on viability: below means True, at or above means False.

Solved cases (8 shown):
- compound_structure_string: "COc1cccc(-c2nc(CS(=O)(=O)CC(=O)N3CCN(C4CCCCC4)CC3)c(C)o2)c1"
  label: "False"
- compound_structure_string: "CCOc1ccc(-c2nc(C#N)c(N3CCN(Cc4ccccc4)CC3)o2)cc1"
  label: "True"
- compound_structure_string: "CCCc1nc(SCC(=O)Nc2cc(C)on2)c2c(=O)n(C)c(=O)n(C)c2n1"
  label: "False"
- compound_structure_string: "Cc1cc(NC(=O)c2ccccc2)sc1C"
  label: "True"
- compound_structure_string: "O=C(NCCc1ccccc1)c1ccncc1"
  label: "False"
- compound_structure_string: "O=c1oc(-c2cc3ccccc3o2)nc2sc3c(c12)CCCC3"
  label: "True"
- compound_structure_string: "Cn1c(=O)oc2cc(S(=O)(=O)NCc3ccccn3)ccc21"
  label: "False"
- compound_structure_string: "COc1ccc(N(CC(=O)NCc2cccnc2)S(=O)(=O)c2c(C)nn(C)c2C)cc1"
  label: "False"

*Q* I wonder whether O=c1c2ccccc2ncn1-c1ccc2c(c1)OCCO2 has viability below 90%. Can you tell?
*A* False

*Q* I wonder whether O=C(Cn1ncc2c(=O)oc3ccccc3c21)N(Cc1ccco1)C1CCCCC1 has viability below 90%. Can you tell?
*A* False

* * *

# test_protocol: OD615 S. cerevisiae growth inhibition, permissive medium, pilot counter-assay, permissive growth control for S. cerevisiae lifespan shortening project (AID 705)
# condition_summary: OD615, 24 h, at 10 µM, hits give high values
measured_endpoint: growth inhibition (%)
Quick reminder: number only, in %, skip the unit.

Consider the following illustrative entries.
- molecule: "COc1cc2[nH]c(=O)n(CCCCCC(=O)NCCCN3CCC(C)CC3)c(=O)c2cc1OC"
  measurement_units: "%"
  growth inhibition: -13.8
- molecule: "COc1ccc(-n2c3c(cc(C(=O)Nc4ccc5c(c4)C(=O)NC5=O)c2=O)C(=O)CCC3)cc1"
  measurement_units: "%"
  growth inhibition: -7.19
- molecule: "O=C(CSc1nccn1-c1ccc(Cl)cc1)NCc1ccc2c(c1)OCO2"
  measurement_units: "%"
  growth inhibition: -14.6

*Q* Specify reported growth inhibition for the molecule shown: COc1ccc(C2N3CC4(C)CN2CC(C)(C3)C4=O)cc1OC (stereo not drawn)
*A* -1.15

*Q* Specify reported growth inhibition for the molecule shown: COCC(C)NC(=O)NC1(C(F)(F)F)Oc2ccc(Cl)cc2O1 (stereo not drawn)
*A* -10

*Q* Specify reported growth inhibition for the molecule shown: O=C(Cc1cccs1)N1CCN(c2ccccn2)CC1
*A* -2.47

*Q* Specify reported growth inhibition for the molecule shown: CCOC(=O)CSC1=C(C#N)C(c2ccccc2OC)CC(=O)N1 (stereo not drawn)
*A* -14

*Q* Specify reported growth inhibition for the molecule shown: Cc1ccsc1-c1nc(CSCC(=O)NCc2ccc3c(c2)OCO3)c(C)o1
*A* -9.04

*Q* Specify reported growth inhibition for the molecule shown: O=C(Cn1cc(C(=O)c2cccs2)c2ccccc21)NCc1ccc2c(c1)OCO2
*A* -5.79

*Q* Specify reported growth inhibition for the molecule shown: O=C(COC(=O)c1ccc(Br)o1)Nc1nc2ccccc2s1
*A* -11.2

*Q* Specify reported growth inhibition for the molecule shown: C=CCc1c(C)nc(SCc2nc3ccccc3c(=O)[nH]2)[nH]c1=O
*A* 3.73

*Q* Specify reported growth inhibition for the molecule shown: CCCCCn1c(N(C)Cc2ccccc2)nc2c1c(=O)[nH]c(=O)n2C
*A* -4.46

*Q* Specify reported growth inhibition for the molecule shown: O=C(C1CCN(S(=O)(=O)c2ccc(F)cc2)CC1)N1CCOCC1
*A* -6.2

*Q* Specify reported growth inhibition for the molecule shown: c1ccc2[nH]c(-c3ccnc4ccccc34)nc2c1
*A* 0.915

*Q* Specify reported growth inhibition for the molecule shown: Cc1ccc(-c2ccc(CCC(=O)O)n2CC(=O)O)cc1
*A* -3.08

*Q* Specify reported growth inhibition for the molecule shown: CCOC(=O)c1c(C)c(-c2ccccc2)n(CC(=O)N2CCCC2)c1C
*A* -8.25

*Q* Specify reported growth inhibition for the molecule shown: CCN1CCN(C(c2ccccc2)c2sc3nc(C)nn3c2O)CC1 (stereo not drawn)
*A* 0.24

*Q* Specify reported growth inhibition for the molecule shown: COc1ccc2cc(CCNC(=O)C3CCCC3)c(=O)[nH]c2c1
*A* -6.89

*Q* Specify reported growth inhibition for the molecule shown: O=C(Nc1ccc(Oc2ccc(NC(=O)C3CCCO3)cc2)cc1)C1CCCO1 (stereo not drawn)
*A* -2.75

*Q* Specify reported growth inhibition for the molecule shown: COCc1cc(CN2CCCC2)c(O)c2ncccc12
*A* -11.1

*Q* Specify reported growth inhibition for the molecule shown: CC(C)Sc1nnc(NC(=O)C2CC2)s1
*A* -12.6

*Q* Specify reported growth inhibition for the molecule shown: COc1ccc(OC)c2sc(NC(=O)c3ccc(Cl)s3)nc12
*A* -16.4

*Q* Specify reported growth inhibition for the molecule shown: N#Cc1nc(-c2ccccc2F)oc1NC1CCCCC1
*A* -18.3

* * *

# test_protocol: OD615 S. cerevisiae growth inhibition, permissive medium, pilot counter-assay, permissive growth control for S. cerevisiae lifespan shortening project (AID 705)
# condition_summary: OD615, 24 h, at 10 µM, hits give high values
growth inhibition: recorded values
Quick reminder: number only, in %, skip the unit.

- compound: "CC1CCc2nn(CC(=O)NCCCN3CCCC3=O)cc2C1 (stereo unspecified)"
  measurement_units: "%"
  growth inhibition: -17.8
- compound: "CCOC(=O)c1ccc(NC(=O)C2CCN(S(=O)(=O)c3ccccc3)CC2)cc1"
  measurement_units: "%"
  growth inhibition: -12.1
- compound: "COc1ccc(N2CC(C(=O)NC3CC(C)(C)NC(C)(C)C3)CC2=O)cc1 (stereo unspecified)"
  measurement_units: "%"
  growth inhibition: -9.42
- compound: "CC(C)NC(=O)C1CCCN(c2nnc(-n3cccc3)s2)C1 (stereo unspecified)"
  measurement_units: "%"
  growth inhibition: -0.35

*Q* Specify reported growth inhibition for the compound shown: Cc1csc(NC(=O)C(CC(C)C)NS(=O)(=O)c2ccc3c(c2)oc(=O)n3C)n1 (stereo unspecified)
*A* 2.94

*Q* Specify reported growth inhibition for the compound shown: CC1CC(NC(=O)CCn2c(=O)oc3ccccc32)CC(C)(C)C1 (stereo unspecified)
*A* 1.98

*Q* Specify reported growth inhibition for the compound shown: N#CCCN1CCN(S(=O)(=O)c2ccc(S(=O)(=O)N3CCOCC3)cc2)CC1
*A* -6.47

*Q* Specify reported growth inhibition for the compound shown: O=C(Cn1nc(C(=O)O)c2ccccc2c1=O)NCC1CCCO1 (stereo unspecified)
*A* -4.73

*Q* Specify reported growth inhibition for the compound shown: Cn1c(/N=C/c2cccs2)nc2ccccc21
*A* -8.72

*Q* Specify reported growth inhibition for the compound shown: O=C(NC(O)C(=O)c1ccccc1)c1cccs1 (stereo unspecified)
*A* 5.04

*Q* Specify reported growth inhibition for the compound shown: CCc1nnc(NC(=O)CSc2nc3c(c(=O)n2CC)SC(C)C3)s1 (stereo unspecified)
*A* 3.12

* * *

# test_protocol: growth suppression of beta-catenin knockout HCT116, pilot screen, human colon tumor cells (AID 823);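 also: 0% = wells killed by 20 µM Hyamine and 100% = untreated DMSO cell wells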
# condition_summary: CellTiter-Glo, 60 h, at 10 µM, hits give low values
Records with an inconclusive call do not appear.
measured_endpoint: viability (%)
Quick reminder: number only, in %, skip the unit.

- molecule: "C=CCNC(=O)C1CCN(S(=O)(=O)c2ccc(Br)cc2)CC1"
  viability, %: 48.1
- molecule: "COc1cc(OC)c(Nc2cc(C)nc3nc(C)nn23)cc1Cl"
  viability, %: 106
- molecule: "Cc1cccc(CSc2nnc(-c3ccccn3)n2N)c1"
  viability, %: 103

*Q* Specify reported viability for the molecule shown: CC1(C)CC(=O)c2sc(NC(=O)CN3C(=O)CCC3=O)nc2C1
*A* 103

*Q* Specify reported viability for the molecule shown: COc1ccc(C(=O)NCC(c2cccnc2)N2CCN(c3ccccc3)CC2)cc1OC (stereo unspecified)
*A* 97.6

*Q* Specify reported viability for the molecule shown: CCc1cc(=O)oc2cc(OCC(=O)N(CC)CC)c(Cl)cc12
*A* 109

*Q* Specify reported viability for the molecule shown: Nc1ccc(OCc2ccccc2)cc1
*A* 98.7

*Q* Specify reported viability for the molecule shown: N#Cc1ccc(NC(=O)Nc2ccc(Cl)cc2)cc1
*A* 6.71

*Q* Specify reported viability for the molecule shown: COc1ccccc1CC1(C)NC(=O)N(CC(=O)N2CC(C)OC(C)C2)C1=O (stereo unspecified)
*A* 95.5

*Q* Specify reported viability for the molecule shown: CCOC(=O)c1ccc(NC(=O)CSc2nc(C)cc(=O)[nH]2)cc1
*A* 98.5

*Q* Specify reported viability for the molecule shown: CCOC(=O)CN1C(=O)C(O)(CC(=O)c2ccccn2)c2ccccc21 (stereo unspecified)
*A* 82.8
